test system: breast - MCF-7; experiment: Antiproliferative assay (MTT) MCF-7; details: MCF-7, 1.56 µM
observation-type: Average of Relative viability of cells (%)
Answers are plain numbers, in %.

Some compounds with recorded Average of Relative viability of cells (%):
compound	units-of-measure	readout-value
Cc1nc(SCC(=O)Nc2nc(-c3ccc(Cl)cc3)cs2)sc1C(=O)/C=C/c1ccccc1 [Compound 10f]	%	100
Cc1nc(SCC(=O)Nc2nc(-c3ccc(Cl)cc3)cs2)sc1C(=O)/C=C/c1ccc(F)cc1 [Compound 10h]	%	100
Cc1ccc(-c2csc(NC(=O)CSc3nc(C)c(C(=O)/C=C/c4ccc(F)cc4)s3)n2)cc1 [Compound 10m]	%	100
Cc1ccc(/C=C/C(=O)c2sc(SCC(=O)Nc3nccs3)nc2C)cc1 [Compound 13d]	%	88.6
Cc1ccc(/C=C/C(=O)c2sc(SCC(=O)Nc3nc(-c4ccccc4)cs3)nc2C)cc1 [Compound 10d]	%	97.5
COc1ccc(/C=C/C(=O)c2sc(SCC(=O)Nc3nc(-c4ccc(C)cc4)cs3)nc2C)cc1 [Compound 10o]	%	73.4
Cc1nc(SCC(=O)Nc2nccs2)sc1C(=O)/C=C/c1ccc(F)cc1 [Compound 13c]	%	100

Here is the next item to consider.
QUERY: Which Average of Relative viability of cells (%) reading was recorded for the compound Cc1nc(SCC(=O)Nc2nccs2)sc1C(=O)/C=C/c1ccc(Cl)cc1 [Compound 13b] ?
RESULT: 97.8
